B1: RHOBTB3 (parent)
chain: STTEGIQLAKELGATYLELHSLDD

variants of: B1; test: protein stability index of a GFP-peptide fusion (GPS, HEK-293T) (PSI 1-6); higher = more stable; conditions: c terminus: a fixed tail appended;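 also: lentivirally expressed fusions sorted by FACS into six bins by GFP to DsRed ratio, PSI derived from sequencing read proportions per bin multiplied by bin number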
# protein stability index listing for each entry below
// print number alone

Worked cases, protein stability index given:
| VARIANT_SPEC | QUANTITATIVE_READOUT |
| --- | --- |
| L12T | 4.88 |
| S21V | 2.93 |
| S21A | 2.93 |

I am curious: what protein stability index value has been reported for E18I ?
1.86

I am curious: what protein stability index value has been reported for S21D ?
4.49

I am curious: what protein stability index value has been reported for T2L ?
2.21

I am curious: what protein stability index value has been reported for E4D ?
3.44
